TARGET_DESC: urokinase enzyme Abbokinase (Homo sapiens, UniProt P00749)
Construct: purchased Abbott Laboratories, Abbott Park, IL
EXPERIMENT_DESCRIPTION: Inhibition of urokinase on chromogenic substrate S-2444
Assay type: biochemical
CONDITION_LABEL: read-out: Ki
pKi: −log10 of the molar value.
MEASURED_PARAMETER: pKi

The following molecules have reported results that may help.
[[record]]
molecule = "CC(=O)N1CCc2ccc(C3CC3c3ccc4cc(C(=N)N)ccc4c3)cc2C1C(C)C (stereo not shown)"
result_value = 6.80

[[record]]
molecule = "CC(C)C1c2cc(C3CC3c3ccc4cc(C(=N)N)ccc4c3)ccc2CCN1Cc1ccccc1 (stereo not shown)"
result_value = 6.84


1. CCC1CN(C)Cc2ccc(C3CC3c3ccc4cc(C(=N)N)ccc4c3)cc21 (stereo not shown)
2. N=C(N)c1ccc2cc(C3CC3c3ccc4c(c3)C(C3CCCCC3)=NCC4)cc(Br)c2c1 (stereo not shown)
Exam item: In terms of reported pKi, does 1 or 2 have the smaller number? Field: selected label. Fill in the label of the entry you choose.
Marked response: 1
(1: 6.91, 2: 7.74)

---

TARGET_DESC: urokinase enzyme Abbokinase (Homo sapiens, UniProt P00749)
Construct: purchased Abbott Laboratories, Abbott Park, IL
EXPERIMENT_DESCRIPTION: Inhibition of urokinase on chromogenic substrate S-2444
Format: biochemical
CONDITION_LABEL: read-out: Ki
pKi: −log10 of the molar value.
MEASURED_PARAMETER: pKi

[[record]]
compound = "C=CCN1CCc2ccc(C3CC3c3ccc4cc(C(=N)N)ccc4c3)cc2C1C(C)C (centres unmarked) [Example 25]"
result_value = 7.20


I. CC(C)C1=NCCc2ccc(C=Cc3cc(Br)c4cc(C(=N)N)ccc4c3)cc21 [Example 22]
II. CC(C)C1NCCc2ccc(C3CC3c3ccc4cc(C(=N)N)ccc4c3)cc21 (centres unmarked) [Example 20]
Exam item: Between item I and item II , which reported pKi is smaller? Provide the label of your selected option as the answer.
Marked response: I
(I: 6.54, II: 7.08)

P. CCCC1c2cc(C3CC3c3ccc4cc(C(=N)N)ccc4c3)ccc2CCN1C (centres unmarked) [Example 11]
Q. CC(C)C1=NCCc2ccc(C3CC3c3cc(-c4ccoc4)c4cc(C(=N)N)ccc4c3)cc21 (centres unmarked) [Example 1]
R. CCC1(CC)CN(C)C(C(C)C)c2ccc(C3CC3c3ccc4cc(C(=N)N)ccc4c3)cc21 (centres unmarked) [Example 32]
Exam item: Sequence the entries by pKi, beginning with the highest number. Please list each label once, in the requested order.
Marked response: Q, P, R

---

TARGET_DESC: urokinase enzyme Abbokinase (Homo sapiens, UniProt P00749)
Construct: purchased Abbott Laboratories, Abbott Park, IL
EXPERIMENT_DESCRIPTION: Inhibition of urokinase on chromogenic substrate S-2444
Format: biochemical
CONDITION_LABEL: read-out: Ki
pKi: −log10 of the molar value.
MEASURED_PARAMETER: pKi

Worked examples follow.
[[record]]
compound = "COc1ccccc1-c1cc(C2CC2c2ccc3c(c2)C(C(C)C)N(C)CC3)cc2ccc(C(=N)N)cc12 (centres unmarked) [Example 40]"
measured_parameter = "pKi"
result_value = 6.09

[[record]]
compound = "N=C(N)c1ccc2cc(C3CC3c3ccc4c(c3)C(C3CCCCC3)=NCC4)ccc2c1 (centres unmarked) [Example 9]"
measured_parameter = "pKi"
result_value = 7.30

[[record]]
compound = "CCC1CNCc2ccc(C3CC3c3ccc4cc(C(=N)N)ccc4c3)cc21 (centres unmarked) [Example 48]"
measured_parameter = "pKi"
result_value = 7.54

[[record]]
compound = "CC(C)C1c2cc(C3CC3c3ccc4cc(C(=N)N)ccc4c3)ccc2CCN1CC1CC1 (centres unmarked) [Example 23]"
measured_parameter = "pKi"
result_value = 7.24


P. CC(C)C1c2cc(C3CC3c3ccc4cc(C(=N)N)ccc4c3)ccc2CCN1CC(F)(F)F (centres unmarked) [Example 33]
Q. CCC1CNCc2ccc(C=Cc3ccc4cc(C(=N)N)ccc4c3)cc21 (centres unmarked) [Example 50]
R. C=Cc1cc(C2CC2c2ccc3c(c2)C(C(C)C)N(C)CC3)cc2ccc(C(=N)N)cc12 (centres unmarked) [Example 41]
Exam item: # rank_down: sort by pKi, max first Provide your answer as the labels ordered per the instruction.
Marked response: R, Q, P

---

TARGET_DESC: urokinase enzyme Abbokinase (Homo sapiens, UniProt P00749)
Construct: purchased Abbott Laboratories, Abbott Park, IL
EXPERIMENT_DESCRIPTION: Inhibition of urokinase on chromogenic substrate S-2444
Assay type: biochemical
CONDITION_LABEL: read-out: Ki
MEASURED_PARAMETER: Ki (nM)

[[record]]
compound = "CC(C)C1c2cc(C3CC3c3ccc4cc(C(=N)N)ccc4c3)ccc2CCN1CCO (stereo not shown)"
measured_parameter = "Ki"
result_value = 48


A. CC(C)C1c2cc(C3CC3c3ccc4cc(C(=N)N)ccc4c3)ccc2CCN1C(C)C (stereo not shown)
B. CC(C)C1c2cc(C3CC3c3ccc4cc(C(=N)N)ccc4c3)ccc2CCN1Cc1cccnc1 (stereo not shown)
Exam item: # argmax over Ki for candidates A and B Which one? Tell me its label.
Marked response: A
(A: 130 nM, B: 84 nM)

---

TARGET_DESC: urokinase enzyme Abbokinase (Homo sapiens, UniProt P00749)
Construct: purchased Abbott Laboratories, Abbott Park, IL
EXPERIMENT_DESCRIPTION: Inhibition of urokinase on chromogenic substrate S-2444
Type: biochemical
CONDITION_LABEL: read-out: Ki
pKi: −log10 of the molar value.
MEASURED_PARAMETER: pKi

Guide cases for pKi, answers given:
[[record]]
compound = "CCC1CN(C(C)=O)Cc2ccc(C3CC3c3ccc4cc(C(=N)N)ccc4c3)cc21 (stereo not shown) [Example 52]"
measured_parameter = "pKi"
result_value = 6.28

[[record]]
compound = "N=C(N)c1ccc2cc(C3CC3c3ccc4c(c3)CCNC4)ccc2c1 (stereo not shown) [Example 46]"
measured_parameter = "pKi"
result_value = 6.74

[[record]]
compound = "CC(C)C1NCCc2ccc(C=Cc3ccc4cc(C(=N)N)ccc4c3)cc21 (stereo not shown) [Example 13]"
measured_parameter = "pKi"
result_value = 6.59

[[record]]
compound = "CC(C)C1c2cc(C3CC3c3cc(Br)c4cc(C(=N)N)ccc4c3)ccc2CCN1C (stereo not shown) [Example 36]"
measured_parameter = "pKi"
result_value = 7.27


P. CC(C)/C=C/c1cc(C2CC2c2ccc3c(c2)C(C2CCCCC2)=NCC3)cc2ccc(C(=N)N)cc12 (stereo not shown) [Example 58]
Q. CCC1CN(Cc2ccccc2)Cc2ccc(C3CC3c3ccc4cc(C(=N)N)ccc4c3)cc21 (stereo not shown) [Example 49]
Exam item: Lab note: check whether P or Q has the lower measured pKi. Could you answer with the label of the item you picked?
Marked response: Q

Provenance of the data: patent EP1276722B1
